# Assayed target: JAK1 (Homo sapiens, UniProt P23458)
# Construct: purchased Carna Biosciences
# Sequence (P23458 whole entry): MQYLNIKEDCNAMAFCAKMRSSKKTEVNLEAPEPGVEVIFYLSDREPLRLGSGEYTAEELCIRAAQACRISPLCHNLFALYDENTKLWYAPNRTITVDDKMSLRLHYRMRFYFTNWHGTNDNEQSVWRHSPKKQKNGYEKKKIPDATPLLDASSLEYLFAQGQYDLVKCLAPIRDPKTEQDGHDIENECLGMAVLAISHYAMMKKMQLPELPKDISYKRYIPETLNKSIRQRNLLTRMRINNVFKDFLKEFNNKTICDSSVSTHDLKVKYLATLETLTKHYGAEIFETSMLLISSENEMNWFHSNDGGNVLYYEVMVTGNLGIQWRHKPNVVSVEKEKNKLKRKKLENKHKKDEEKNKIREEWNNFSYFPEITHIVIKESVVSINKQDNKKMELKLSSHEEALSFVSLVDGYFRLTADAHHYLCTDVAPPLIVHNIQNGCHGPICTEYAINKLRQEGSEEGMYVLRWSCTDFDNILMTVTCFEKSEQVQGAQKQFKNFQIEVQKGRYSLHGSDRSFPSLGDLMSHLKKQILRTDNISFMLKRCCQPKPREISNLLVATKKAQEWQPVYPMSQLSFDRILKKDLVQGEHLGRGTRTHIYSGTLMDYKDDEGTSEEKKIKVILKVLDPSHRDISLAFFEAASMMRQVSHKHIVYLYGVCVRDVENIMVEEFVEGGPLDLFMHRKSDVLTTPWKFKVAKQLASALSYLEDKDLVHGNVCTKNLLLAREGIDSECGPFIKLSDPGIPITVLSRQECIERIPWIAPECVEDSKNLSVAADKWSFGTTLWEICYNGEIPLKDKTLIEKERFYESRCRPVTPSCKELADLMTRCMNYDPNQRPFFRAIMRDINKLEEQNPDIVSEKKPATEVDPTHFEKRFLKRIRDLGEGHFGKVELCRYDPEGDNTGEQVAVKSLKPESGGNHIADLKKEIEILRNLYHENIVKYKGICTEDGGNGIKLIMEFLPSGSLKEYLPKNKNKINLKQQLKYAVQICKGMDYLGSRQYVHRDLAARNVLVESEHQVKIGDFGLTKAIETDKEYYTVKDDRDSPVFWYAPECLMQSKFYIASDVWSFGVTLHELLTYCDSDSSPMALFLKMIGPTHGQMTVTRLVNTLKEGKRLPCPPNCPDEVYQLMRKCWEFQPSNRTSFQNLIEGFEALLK
# Assay overview: Off-chip Mobility Shift Assay (MSA) kinase inhibition
# Type: biochemical
# Protocol conditions: inhibitor concentration 0.01 μM
Measured inhibition at 0.01 µM values are reported for all entries that follow.

See these solved cases before continuing.
[
  {
    "Compound": "COCCCS(=O)(=O)Nc1ccc(F)c(C(=O)c2c[nH]c3ncc(-c4ccc(Cl)cc4)cc23)c1F",
    "Recorded value": "< 20%"
  },
  {
    "Compound": "COCCS(=O)(=O)Nc1ccc(F)c(C(=O)c2c[nH]c3ncc(-c4ccc(Cl)cc4)cc23)c1F",
    "Recorded value": "< 20%"
  },
  {
    "Compound": "C/C=C/S(=O)(=O)Nc1ccc(F)c(C(=O)c2c[nH]c3ncc(-c4ccc(Cl)cc4)cc23)c1F [200-93a]",
    "Recorded value": "> 30%"
  }
]

Please look at the following compound next.
Enquiry: Any idea what inhibition at 0.01 µM came out for O=C(c1c(F)ccc(NS(=O)(=O)CCCO)c1F)c1c[nH]c2ncc(-c3ccc(Cl)cc3)cc12 on JAK1 (Homo sapiens, UniProt P23458)?
Return: > 30%

---

# Assayed target: JAK1 (Homo sapiens)
# Construct: purchased Carna Biosciences
# Assay overview: Off-chip Mobility Shift Assay (MSA) kinase inhibition
# Type: biochemical
# Protocol conditions: inhibitor concentration 0.1 μM
Assay readout: inhibition at 0.1 µM

See these solved cases before continuing.
[
  {
    "Compound": "CC(O)CS(=O)(=O)Nc1ccc(F)c(C(=O)c2c[nH]c3ncc(-c4ccc(Cl)cc4)cc23)c1F (stereo not shown)",
    "inhibition at 0.1 µM": "< 30%"
  },
  {
    "Compound": "O=C(c1c(F)ccc(NS(=O)(=O)CC(O)CO)c1F)c1c[nH]c2ncc(-c3ccc(Cl)cc3)cc12 (stereo not shown)",
    "inhibition at 0.1 µM": "> 30%"
  },
  {
    "Compound": "O=C(c1c(F)ccc(NS(=O)(=O)CCCO)c1F)c1c[nH]c2ncc(-c3ccc(Cl)cc3)cc12",
    "inhibition at 0.1 µM": "> 50%"
  }
]

Please look at the following compound next.
Enquiry: Any idea what inhibition at 0.1 µM came out for CC(=O)CS(=O)(=O)Nc1ccc(F)c(C(=O)c2c[nH]c3ncc(-c4ccc(Cl)cc4)cc23)c1F on JAK1 (Homo sapiens)?
Return: < 30%

---

# Assayed target: KDR (Homo sapiens, UniProt P35968)
# Construct: purchased Carna Biosciences
# Sequence (P35968 20-1356): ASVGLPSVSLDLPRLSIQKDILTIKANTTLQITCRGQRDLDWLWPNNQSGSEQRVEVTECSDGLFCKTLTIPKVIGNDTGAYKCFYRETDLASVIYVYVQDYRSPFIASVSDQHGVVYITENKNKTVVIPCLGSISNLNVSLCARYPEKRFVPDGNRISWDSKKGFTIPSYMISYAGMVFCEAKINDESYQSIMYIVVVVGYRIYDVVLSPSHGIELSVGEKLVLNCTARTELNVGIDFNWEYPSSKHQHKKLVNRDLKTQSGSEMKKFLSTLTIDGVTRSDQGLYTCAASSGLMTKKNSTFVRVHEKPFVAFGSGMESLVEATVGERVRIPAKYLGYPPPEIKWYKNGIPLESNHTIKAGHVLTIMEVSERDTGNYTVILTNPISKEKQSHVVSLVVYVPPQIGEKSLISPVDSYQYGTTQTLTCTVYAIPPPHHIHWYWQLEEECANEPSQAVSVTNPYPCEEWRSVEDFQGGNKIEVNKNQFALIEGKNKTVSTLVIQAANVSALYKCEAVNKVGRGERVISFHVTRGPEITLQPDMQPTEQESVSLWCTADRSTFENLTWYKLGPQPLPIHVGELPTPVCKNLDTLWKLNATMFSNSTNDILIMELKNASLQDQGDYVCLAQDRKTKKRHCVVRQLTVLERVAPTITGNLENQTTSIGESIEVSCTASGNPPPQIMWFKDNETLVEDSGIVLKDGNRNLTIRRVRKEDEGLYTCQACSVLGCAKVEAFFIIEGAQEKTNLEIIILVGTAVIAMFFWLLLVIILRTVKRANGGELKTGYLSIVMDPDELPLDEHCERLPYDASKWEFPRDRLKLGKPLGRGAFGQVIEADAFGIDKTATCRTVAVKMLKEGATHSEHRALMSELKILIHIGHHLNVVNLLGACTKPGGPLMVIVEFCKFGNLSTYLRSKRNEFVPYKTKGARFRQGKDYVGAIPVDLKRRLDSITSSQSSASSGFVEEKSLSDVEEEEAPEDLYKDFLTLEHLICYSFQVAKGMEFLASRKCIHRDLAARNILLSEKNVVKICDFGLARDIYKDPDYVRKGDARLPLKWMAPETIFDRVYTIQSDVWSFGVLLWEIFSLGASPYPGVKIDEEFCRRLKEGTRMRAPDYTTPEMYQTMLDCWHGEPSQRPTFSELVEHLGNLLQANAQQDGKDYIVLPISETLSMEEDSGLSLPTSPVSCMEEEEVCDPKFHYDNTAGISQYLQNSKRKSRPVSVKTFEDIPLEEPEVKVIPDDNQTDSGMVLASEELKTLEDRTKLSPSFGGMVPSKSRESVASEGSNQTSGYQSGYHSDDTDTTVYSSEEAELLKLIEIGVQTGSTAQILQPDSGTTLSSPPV
# Assay overview: Off-chip Mobility Shift Assay (MSA) kinase inhibition
# Format: biochemical
# Protocol conditions: inhibitor concentration 0.1 μM
Measured inhibition at 0.1 µM values are reported for all entries that follow.

See these solved cases before continuing.
[
  {
    "Compound": "CC(O)CS(=O)(=O)Nc1ccc(F)c(C(=O)c2c[nH]c3ncc(-c4ccc(Cl)cc4)cc23)c1F (stereo not shown)",
    "Assayed target": "KDR (Homo sapiens, UniProt P35968)",
    "inhibition at 0.1 µM": "< 30%"
  },
  {
    "Compound": "O=C(c1c(F)ccc(NS(=O)(=O)CCCO)c1F)c1c[nH]c2ncc(-c3ccc(Cl)cc3)cc12",
    "Assayed target": "KDR (Homo sapiens, UniProt P35968)",
    "inhibition at 0.1 µM": "> 50%"
  },
  {
    "Compound": "O=C(c1c(F)ccc(NS(=O)(=O)CC(O)CO)c1F)c1c[nH]c2ncc(-c3ccc(Cl)cc3)cc12 (stereo not shown)",
    "Assayed target": "KDR (Homo sapiens, UniProt P35968)",
    "inhibition at 0.1 µM": "< 30%"
  }
]

Please look at the following compound next.
Enquiry: Requested field: inhibition at 0.1 µM. Item: CC(=O)CS(=O)(=O)Nc1ccc(F)c(C(=O)c2c[nH]c3ncc(-c4ccc(Cl)cc4)cc23)c1F
Return: < 30%

---

Measured inhibition at 0.01 µM values are reported for all entries that follow.
# Assayed target: PDGFRβ (Homo sapiens)
# Construct: purchased Carna Biosciences
# Sequence (P09619 33-1106): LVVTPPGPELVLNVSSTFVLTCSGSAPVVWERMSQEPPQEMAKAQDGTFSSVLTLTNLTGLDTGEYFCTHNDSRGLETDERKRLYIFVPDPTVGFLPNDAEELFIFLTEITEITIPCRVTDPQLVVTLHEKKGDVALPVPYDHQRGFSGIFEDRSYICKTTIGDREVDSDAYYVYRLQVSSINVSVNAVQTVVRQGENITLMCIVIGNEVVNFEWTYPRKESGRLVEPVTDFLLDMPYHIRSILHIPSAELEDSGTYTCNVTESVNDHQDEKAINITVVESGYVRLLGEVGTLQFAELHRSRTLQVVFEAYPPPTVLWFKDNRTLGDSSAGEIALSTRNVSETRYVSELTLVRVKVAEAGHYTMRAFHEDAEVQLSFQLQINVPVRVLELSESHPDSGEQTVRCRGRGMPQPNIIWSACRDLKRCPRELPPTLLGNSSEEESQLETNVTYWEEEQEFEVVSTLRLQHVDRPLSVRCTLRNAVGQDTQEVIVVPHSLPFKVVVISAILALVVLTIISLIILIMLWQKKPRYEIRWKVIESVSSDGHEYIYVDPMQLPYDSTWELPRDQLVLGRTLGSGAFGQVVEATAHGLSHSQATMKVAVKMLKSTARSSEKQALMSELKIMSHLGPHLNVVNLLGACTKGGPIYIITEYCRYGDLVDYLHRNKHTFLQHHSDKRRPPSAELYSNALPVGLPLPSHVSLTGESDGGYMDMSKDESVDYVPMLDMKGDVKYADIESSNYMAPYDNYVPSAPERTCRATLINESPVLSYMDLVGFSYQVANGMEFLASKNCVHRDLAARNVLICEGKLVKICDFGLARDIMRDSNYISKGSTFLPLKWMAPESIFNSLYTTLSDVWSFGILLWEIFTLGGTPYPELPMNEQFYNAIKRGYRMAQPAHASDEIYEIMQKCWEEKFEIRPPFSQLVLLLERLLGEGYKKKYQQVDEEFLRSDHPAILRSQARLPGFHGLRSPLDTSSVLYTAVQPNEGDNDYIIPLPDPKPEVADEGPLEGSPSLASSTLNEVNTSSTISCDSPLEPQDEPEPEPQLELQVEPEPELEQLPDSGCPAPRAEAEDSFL
# Assay overview: Off-chip Mobility Shift Assay (MSA) kinase inhibition
# Format: biochemical
# Protocol conditions: inhibitor concentration 0.01 μM

[
  {
    "Molecule": "O=C(c1c(F)ccc(NS(=O)(=O)CCCO)c1F)c1c[nH]c2ncc(-c3ccc(Cl)cc3)cc12",
    "Assayed target": "PDGFRβ (Homo sapiens)",
    "inhibition at 0.01 µM": "< 30%"
  }
]

Enquiry: Requested field: inhibition at 0.01 µM. Item: COCCCS(=O)(=O)Nc1ccc(F)c(C(=O)c2c[nH]c3ncc(-c4ccc(Cl)cc4)cc23)c1F
Return: < 20%

Enquiry: Next record, please: C/C=C/S(=O)(=O)Nc1ccc(F)c(C(=O)c2c[nH]c3ncc(-c4ccc(Cl)cc4)cc23)c1F [200-93a]
Return: > 20%

Enquiry: Next record, please: COCCS(=O)(=O)Nc1ccc(F)c(C(=O)c2c[nH]c3ncc(-c4ccc(Cl)cc4)cc23)c1F
Return: < 20%

---

# Assayed target: SRC (Homo sapiens, UniProt P12931)
# Construct: purchased Carna Biosciences
# Sequence (P12931 whole entry): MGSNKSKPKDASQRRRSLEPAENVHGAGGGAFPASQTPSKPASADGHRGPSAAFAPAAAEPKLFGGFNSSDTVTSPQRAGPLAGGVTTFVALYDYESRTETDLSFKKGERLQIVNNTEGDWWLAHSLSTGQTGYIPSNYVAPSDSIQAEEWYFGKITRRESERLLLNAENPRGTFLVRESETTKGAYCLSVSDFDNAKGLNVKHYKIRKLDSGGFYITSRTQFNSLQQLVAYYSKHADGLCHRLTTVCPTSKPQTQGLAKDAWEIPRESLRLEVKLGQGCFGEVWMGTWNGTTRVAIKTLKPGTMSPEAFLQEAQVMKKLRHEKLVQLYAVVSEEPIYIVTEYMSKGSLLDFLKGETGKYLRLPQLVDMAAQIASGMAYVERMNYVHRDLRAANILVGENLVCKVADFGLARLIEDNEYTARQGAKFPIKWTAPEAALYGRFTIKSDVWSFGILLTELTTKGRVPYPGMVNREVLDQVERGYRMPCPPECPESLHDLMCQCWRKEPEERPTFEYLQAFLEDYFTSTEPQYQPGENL
# Assay overview: Off-chip Mobility Shift Assay (MSA) kinase inhibition
# Format: biochemical
# Protocol conditions: inhibitor concentration 0.01 μM
# Description: Off-chip Mobility Shift Assay (MSA) by Cama Biosciences, Inc (Natick, Mass.) a used for measuring the kinase activity and inhibition. • 1) The 5 μL of x4 compound solution, 5 μL of x4 Substrate/ATP/Metal solution, and 10 μL of x2 kinase solution were prepared with assay buffer (20 mM HEPES, 0.01% Triton X100, 2 mM DTT, pH 7.5) and mixed and incubated in a well of polypropylene 384 well microplate for 1 or 5 hour(s)* at room temperature.
Assay readout: inhibition at 0.01 µM

[
  {
    "Molecule": "C/C=C/S(=O)(=O)Nc1ccc(F)c(C(=O)c2c[nH]c3ncc(-c4ccc(Cl)cc4)cc23)c1F [200-93a]",
    "Recorded value": "> 30%"
  },
  {
    "Molecule": "COCCCS(=O)(=O)Nc1ccc(F)c(C(=O)c2c[nH]c3ncc(-c4ccc(Cl)cc4)cc23)c1F [200-123]",
    "Recorded value": "< 20%"
  },
  {
    "Molecule": "COCCS(=O)(=O)Nc1ccc(F)c(C(=O)c2c[nH]c3ncc(-c4ccc(Cl)cc4)cc23)c1F [200-139]",
    "Recorded value": "< 20%"
  }
]

Please look at the following molecule next.
Enquiry: Any idea what inhibition at 0.01 µM came out for O=C(c1c(F)ccc(NS(=O)(=O)CCCO)c1F)c1c[nH]c2ncc(-c3ccc(Cl)cc3)cc12 [200-17] on SRC (Homo sapiens, UniProt P12931)?
Return: < 30%

---

# Assayed target: SRM (Homo sapiens, UniProt Q9H3Y6)
# Construct: purchased Carna Biosciences
# Sequence (Q9H3Y6 whole entry): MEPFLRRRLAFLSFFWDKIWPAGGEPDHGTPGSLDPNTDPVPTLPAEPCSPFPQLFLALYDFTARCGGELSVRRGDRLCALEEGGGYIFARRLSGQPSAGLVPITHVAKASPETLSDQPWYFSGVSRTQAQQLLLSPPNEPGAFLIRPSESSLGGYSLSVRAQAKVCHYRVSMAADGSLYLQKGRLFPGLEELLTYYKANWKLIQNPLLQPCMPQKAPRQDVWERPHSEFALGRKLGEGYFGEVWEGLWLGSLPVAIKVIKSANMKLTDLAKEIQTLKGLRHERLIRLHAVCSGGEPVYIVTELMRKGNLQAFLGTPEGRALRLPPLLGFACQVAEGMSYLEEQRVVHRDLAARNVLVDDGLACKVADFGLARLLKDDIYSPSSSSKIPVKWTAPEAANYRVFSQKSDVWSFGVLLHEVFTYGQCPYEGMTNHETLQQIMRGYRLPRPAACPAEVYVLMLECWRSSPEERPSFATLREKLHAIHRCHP
# Assay overview: Off-chip Mobility Shift Assay (MSA) kinase inhibition
# Assay type: biochemical
# Protocol conditions: inhibitor concentration 0.01 μM
Assay readout: inhibition at 0.01 µM

Enquiry: Requested field: inhibition at 0.01 µM. Item: O=C(c1c(F)ccc(NS(=O)(=O)CCCO)c1F)c1c[nH]c2ncc(-c3ccc(Cl)cc3)cc12
Return: > 30%

Enquiry: Next record, please: COCCCS(=O)(=O)Nc1ccc(F)c(C(=O)c2c[nH]c3ncc(-c4ccc(Cl)cc4)cc23)c1F
Return: > 20%

Enquiry: Next record, please: C/C=C/S(=O)(=O)Nc1ccc(F)c(C(=O)c2c[nH]c3ncc(-c4ccc(Cl)cc4)cc23)c1F [200-93a]
Return: > 30%

Enquiry: Next record, please: COCCS(=O)(=O)Nc1ccc(F)c(C(=O)c2c[nH]c3ncc(-c4ccc(Cl)cc4)cc23)c1F
Return: > 20%

---

# Assayed target: RET (Homo sapiens)
# Construct: purchased Carna Biosciences
# Assay overview: Off-chip Mobility Shift Assay (MSA) kinase inhibition
# Type: biochemical
# Protocol conditions: inhibitor concentration 0.1 μM
Assay readout: inhibition at 0.1 µM

Enquiry: Requested field: inhibition at 0.1 µM. Item: CC(=O)CS(=O)(=O)Nc1ccc(F)c(C(=O)c2c[nH]c3ncc(-c4ccc(Cl)cc4)cc23)c1F
Return: < 30%

Enquiry: Next record, please: O=C(c1c(F)ccc(NS(=O)(=O)CCCO)c1F)c1c[nH]c2ncc(-c3ccc(Cl)cc3)cc12
Return: < 50%

Enquiry: Next record, please: O=C(c1c(F)ccc(NS(=O)(=O)CC(O)CO)c1F)c1c[nH]c2ncc(-c3ccc(Cl)cc3)cc12 (stereo not shown)
Return: < 30%

Enquiry: Next record, please: CC(O)CS(=O)(=O)Nc1ccc(F)c(C(=O)c2c[nH]c3ncc(-c4ccc(Cl)cc4)cc23)c1F (stereo not shown)
Return: < 30%
